Tested on: CLL cells
Experiment: Cytotoxicity of NOS inhibitors and NO quenchers/scavengers for freshly-isolated CLL cells in vitro
Type: cell-based, human
Details: Homo sapiens, read-out: EC50 (average concentration of compound that induced 50% CLL cell death); CLL cell death in vitro; ± SEM
endpoint: EC50 (µM)
Please give a number only; it is taken to be in µM.

Exercise: I'd like to know its EC50. The compound in question is C=CCC(=N)NCCC[C@H](N)C(=O)O [Vinyl-L-NIO, N^5-(1-imino-3-butenyl)-L-ornithine]
Key: 747

Exercise: Another: FC(F)(F)c1ccccc1-n1ccnc1 [TRIM, 1-(2-Trifluoromethylphenyl)imidazole]
Key: 445

Exercise: What do you get for O=[N+]([O-])c1cccc2cn[nH]c12 [7-NI, 7-Nitroindazole] ?
Key: 131

###

Tested on: CLL cells
Assay: Cytotoxicity of NOS inhibitors and NO quenchers/scavengers for freshly-isolated CLL cells in vitro
Assay type: cell-based, human
Conditions: CLL cytotoxicity, freshly-isolated patient cells in vitro; mean ± SEM
endpoint: ED50 for CLL (mean ± SEM) (µM)
Please respond with the number in µM and leave the unit unwritten.

Exercise: # ED50 for CLL (mean ± SEM) lookup, item FC(F)(F)c1ccccc1-n1ccnc1
Key: 445

Exercise: Query C=CCC(=N)NCCC[C@H](N)C(=O)O next
Key: 747

Exercise: Repeat with Cl.Cl.N=C(Nc1ccc(CCNCc2cccc(Cl)c2)cc1)c1cccs1
Key: 11

Exercise: // query: O=[N+]([O-])c1cccc2cn[nH]c12
Key: 131

Exercise: Here is the next compound: CC1(C)N([O])C(c2ccc(C(=O)O)cc2)=[N+]([O-])C1(C)C
Key: 227

Exercise: Proceed to C/C1=C2/[N-][C@H]([C@H](CC(N)=O)[C@@]2(C)CCC(=O)NC[C@@H](C)OP(=O)([O-])O[C@H]2[C@@H](O)[C@@H](n3cnc4cc(C)c(C)cc43)O[C@@H]2CO)[C@]2(C)N=C(/C(C)=C3N=C(/C=C4N=C1[C@@H](CCC(N)=O)C\4(C)C)[C@@H](CCC(N)=O)[C@]\3(C)CC(N)=O)[C@@H](CCC(N)=O)[C@]2(C)CC(N)=O.[Co+3].[OH-] [Hydroxocobalamin]
Key: 148

###

Test system: CLL cells
Assay: Cytotoxicity of NOS inhibitors and NO quenchers/scavengers for freshly-isolated CLL cells in vitro
Format: cell-based, human
Settings: Table 2, CLL cytotoxicity
endpoint: ED50 for CLL

Exercise: // lookup ED50 for CLL for CNC(=N)NCCC[C@H](N)C(=O)O
Key: >2000 µM

Exercise: Again, but for Cc1ccnc(N)c1
Key: >2000 µM

Exercise: Next molecule up: NC(=N[N+](=O)[O-])NCCCC(N)C(=O)O (stereo not drawn)
Key: >2000 µM
